I'd appreciate it if you could supply pIC50 values for the items below.
MEASUREMENT TARGET: HCV NS5B RdRp genotype 1b (Hepatitis C virus genotype 1b, UniProt Q9WMX2)
Construct: The protein was expressed with an 18 amino acid C-terminal truncation to enhance the solubility; made in house; host or cells: E. coli BL21(DE3), pET21a vector
Sequence (Q9WMX2 2420-2992): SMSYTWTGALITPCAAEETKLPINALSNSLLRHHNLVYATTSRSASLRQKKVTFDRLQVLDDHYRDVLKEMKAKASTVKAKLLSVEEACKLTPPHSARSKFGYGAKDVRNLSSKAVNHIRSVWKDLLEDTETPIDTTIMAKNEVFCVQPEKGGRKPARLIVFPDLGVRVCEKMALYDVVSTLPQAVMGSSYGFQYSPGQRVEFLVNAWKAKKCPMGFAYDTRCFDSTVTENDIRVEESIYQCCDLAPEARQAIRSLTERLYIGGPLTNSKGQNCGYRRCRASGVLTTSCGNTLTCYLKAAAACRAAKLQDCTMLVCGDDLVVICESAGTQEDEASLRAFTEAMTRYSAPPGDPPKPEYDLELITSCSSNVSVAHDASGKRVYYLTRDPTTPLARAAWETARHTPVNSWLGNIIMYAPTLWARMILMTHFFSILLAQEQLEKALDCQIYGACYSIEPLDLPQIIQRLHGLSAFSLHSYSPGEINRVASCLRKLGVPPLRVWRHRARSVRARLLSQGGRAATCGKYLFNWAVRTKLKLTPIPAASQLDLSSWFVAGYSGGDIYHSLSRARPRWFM
TEST SUMMARY: Standard HCV NS5B RdRp enzyme assay
Format: biochemical
TEST CONTEXT: Table 1b; HCV NS5B RdRp genotype 1b; read-out: IC50
pIC50: −log10 of the molar value.

Reference set, count: 5
CNC(=O)c1c(-c2ccc(F)cc2)oc2ccc(-c3cc(C(=O)NC4(c5ccccn5)CC4)cc(F)c3C)cc12 [drawing 558]
> 6.60
CNC(=O)c1c(-c2ccc(F)cc2)oc2cc(NS(C)(=O)=O)c(-c3cc(C(=O)NCC(C)C)ccc3OC)cc12
> 6.60
CNC(=O)c1c(-c2ccc(F)cc2)oc2ccc(-c3cc(OCCCCN)cc(C(=O)NCC(C)C)c3)cc12
> 6.60
CNC(=O)c1c(-c2ccc(F)cc2)oc2ccc(-c3cc(C(=O)NCC(C)C)ccc3OCCCN3CCN(C)CC3)cc12
> 6.60
CNC(=O)c1c(-c2ccc(F)cc2)oc2ccc(-c3cc(C(=O)NC4(c5ccccc5Cl)CC4)ccc3Cl)cc12
6.00 to 6.60

Batch request: pIC50 per item, same order as input.
1. CNC(=O)c1c(-c2ccc(F)cc2)oc2ccc(-c3cc(OC[C@@H]4CCCN4)cc(C(=O)NCC(C)C)c3)cc12
2. CNC(=O)c1c(-c2ccc(F)cc2)oc2ccc(-c3ccc(-c4c[nH]c(=O)[nH]c4=O)c(C(=O)NCC(C)C)c3)cc12
3. CNC(=O)c1c(-c2ccc(F)cc2)oc2ccc(-c3cc(C(=O)NC(C)(C)C)ccc3C)cc12
4. CNC(=O)c1c(-c2ccc(F)cc2)oc2ccc(-c3ccc(F)c(C(=O)NC(C)(C)C)c3)cc12
5. CNC(=O)c1c(-c2ccc(F)cc2)oc2ccc(-c3cc(C(=O)NCC(C)C)ccc3OCc3ccccn3)cc12

1: 5.00 to 6.00; 2: > 6.60; 3: > 6.60; 4: > 6.60; 5: > 6.60

Data origin: patent US8309558B2
